tested on: HT29 colon; experiment: NCI-60 one-dose screen, 48 h (100 = growth as untreated, 0 = no growth, -100 = all killed); conditions: 10 µM unless noted
Compounds without any hit were thinned out: in the full panel of roughly 83,000, 20% have a hit.
Output Criterion met for records whose growth is lower than 20%, Criterion not met for records at or above 20%.

The examples below pair each entry with its known result.
> print(dat)
                                   compound     assigned.label
1  CCOC(=O)C(=Cc1ccc(-c2ccccc2)cc1)C(=O)OCC      Criterion met
2    COc1cc(OC)c(C(=O)C(CN(C)C)CN(C)C)cc1OC      Criterion met
3  O=C(NC(Cc1nnc2n(Cc3ccccc3)c(=O)c3c4c(sc3n12)CCCC4)c1ccccc1)c1ccccc1 (stereo not given)  Criterion not met
4  O=S(=O)(NCCNc1nccc(-c2c(-c3ccc(F)c(O)c3)nc3sccn23)n1)c1ccc(F)cc1      Criterion met

*Q* Is growth strictly under 20% for the entry `O=S(=O)(NCCNc1nccc(-c2c(-c3cccc(O)c3)nc3occn23)n1)c1ccc(Br)cc1` ?
*A* Criterion met

###

The following molecules are shown together with reported growth values.
tested on: K-562 leukemia; experiment: NCI-60 one-dose screen, 48 h (100 = growth as untreated, 0 = no growth, -100 = all killed); conditions: 10 µM unless noted
This is part of a sample that, as a whole, favours compounds with a hit. Of some 83,000 tested, about 20% had one in any assay. The source made the active and inactive calls. The calls were made as follows: active = growth percent below 10; inactive = the rest.

Molecule	Assayed Target	Result Value
Nc1nc(N)c(N=Nc2ccccc2)c(-c2ccccc2)n1	K-562 leukemia	77.1% (inactive)

Item: `CC1(C)[C@@H](O[C@@H]2OC[C@@H](O[C@@H]3O[C@H](CO)[C@@H](O)[C@H](O)[C@H]3O[C@@H]3OC[C@@H](O)[C@H](O)[C@H]3O)[C@H](O)[C@H]2O[C@@H]2O[C@H](CO)[C@@H](O)[C@H](O)[C@H]2O)CC[C@]2(C)[C@H]3CC[C@]45OC[C@@]6(CC[C@](C)(C=O)C[C@H]64)[C@H](O)C[C@@]5(C)[C@]3(C)CC[C@@H]12` | growth: -18% (active)

get_value(item= COc1ccc(CCN2C(=O)/C(=C/c3ccc(C4Oc5ccccc5C5CC(c6ccccc6)=NN54)cc3)SC2=S)cc1 (configuration not stated) , readout=growth) returns 100% (inactive)

Entry `COc1cccc(CCNc2ncnc3c2ncn3Cc2nnc3c4ccccc4c(Cl)nn23)c1` ; growth = 61.4% (inactive)

Summary for this molecule, `O=C1/C=C/[C@@H](O)[C@@H]2C[C@@H](O)C[C@H]2/C=C/CCC[C@H](CCO)O1` : growth is 17.7% (inactive)

So for `COc1cc(/C=C2\CN(S(=O)(=O)c3ccccc3)C/C(=C\c3cc(CN4CCCCC4)c(O)c(OC)c3)C2=O)cc(CN2CCCCC2)c1O` , the logged growth turned out to be -9.62% (active)

The molecule `CCOC(=O)c1c(C)c2c(n1Cc1ccccc1)CSCC2=O` showed growth equal to 18.6% [100 µM] (inactive)

###

tested on: HS 578T breast; experiment: NCI-60 one-dose screen, 48 h (100 = growth as untreated, 0 = no growth, -100 = all killed); conditions: 10 µM unless noted
This is part of a sample that, as a whole, favours compounds with a hit. Of some 83,000 tested, about 20% had one in any assay.
Would you mind classing the entries by growth? Ranges: LOW: < 30%; MEDIUM: ≥ 30% and < 90%; HIGH: ≥ 90%

The examples below pair each entry with its known result.
Compound	Assigned Label
CCOC(=O)/C=C1\S/C(=N\Nc2cc(=O)[nH]c3ccccc23)N(c2ccccc2)C1=O	HIGH
C/C(=N\O)c1ccc(NC(=O)CSc2nnc(-c3cc(-c4ccc(S(N)(=O)=O)cc4)nc4ccccc34)n2-c2ccccc2)cc1	MEDIUM
CC1(C)CC(=O)c2c(nn(-c3ccc(Br)cc3)c2-c2cn(-c3ccccc3)nc2-c2cccnc2)C1	HIGH

Here is another compound to look at.
*Q* Which growth category applies to `Cc1ccc(S(=O)(=O)Oc2ccc3sc4cccc(NCCN(C)C)c4c(=O)c3c2)cc1` here?
*A* LOW

###

Test system: IGROV1 ovarian
Experiment: NCI-60 one-dose screen, 48 h (100 = growth as untreated, 0 = no growth, -100 = all killed)
Details: 10 µM unless noted
Protocol: Growth inhibition of the IGROV1 human tumor cell line is measured as a screen for anti-cancer activity. Cells are grown in 96 well plates and exposed to the test compound for 48 hours. Compounds are tested at a single concentration, which is 10^-5 M for most compounds. The reported endpoint is percent growth (GI% or GIPRCNT), where numbers from 0 - 100% represent growth inhibition, and numbers from -100% - 0 represent cell death. For example, a value of 40 represents 60% growth inhibition. […]
Compounds without any hit were thinned out: in the full panel of roughly 83,000, 20% have a hit.
Property Label: growth (%)
Give the number; % is assumed, so skip it.

Smiles Record	Property Label	Result Value
C=C(C)[C@@H]1CC[C@]2(C(=O)N3CCN(C)CC3)CC[C@]3(C)[C@H](CC[C@@H]4[C@@]5(C)CC[C@H](OC(=O)c6ccccc6C(=O)O)C(C)(C)[C@@H]5CC[C@]43C)[C@@H]12	growth	97.9
O=C(NNC(=O)c1nc2cc(F)ccc2n2cccc12)c1cnccn1	growth	35.6
Cc1ccc(S(=O)(=O)c2nc(-c3ccccc3)oc2Sc2nc3ccccc3s2)cc1	growth	80
COC(=O)CC[C@@H]1O[C@@H](c2ccc(F)cc2)[C@@H](O)[C@H]1O	growth	113
CCN1CCN(CC(=O)Nc2nc3ccc(NCc4ccc(F)cc4)cc3s2)CC1	growth	103

The reported growth of the compound `CC1=C(C(=O)Nc2nc(-c3ccc(Cl)cc3)cs2)[C@H](c2ccc(O)cc2)NC(=O)N1` was 97.8

The reported growth of the compound `O=C(N=Nc1c(O)[nH]c2ccccc12)Nc1ccc(F)cc1` was 85.2

Per the record, `CCN(CC)c1ccc(CNc2cc(C)nc3ccccc23)cc1` has growth of 74.8

Note to self: growth recorded for `COC(=O)/C=C1/SC(=Nc2ccc([N+](=O)[O-])cc2)N(CCc2c[nH]c3ccc(O)cc23)C1=O` was 42.6

###

test system: HOP-92 NSCLC; test: NCI-60 one-dose screen, 48 h; settings: 10 µM unless noted
About 83,000 compounds went through this panel and 20% of them were active in at least one assay; those are over-represented in the sample as a whole. Calls of active or inactive are those of the source. How the source made its calls: active means growth percent below 10; inactive means the rest.
Give your call using only these classes: class 1 (active), class 0 (inactive)

Study these solved cases before continuing.
> print(dat)
                                   compound  assayed.target  assigned.label
1  CCOC(=O)C1=C(C)/C(=C\c2[nH]c(C)c(C(=O)OCC)c2C)N=C1C    HOP-92 NSCLC         class 0
2  Cc1ccccc1Nc1cc(O)c2c(=O)cc(-c3ccccc3)oc2c1    HOP-92 NSCLC         class 0
3  CCN1C(=O)N(CC)C2Nn3c(s/c(=C\c4ccccc4Br)c3=O)=NC21 (stereo not given)    HOP-92 NSCLC         class 0
4  COc1cc(/C=C/C(=O)c2ccc(-n3cc(CN4CCN(c5cc6c(cc5F)c(=O)c(C(=O)O)cn6C5CC5)CC4)nn3)cc2)ccc1O    HOP-92 NSCLC         class 0
5  CC[N+]1(CC)CC[N+]2(CCCC(C)CC2)CC1 (stereo not given)    HOP-92 NSCLC         class 0

*Q* Identify the outcome logged in this assay for the compound shown: `CNCc1cccc2c1OCCOCCOCCNS(=O)(=O)c1ccc(cc1)-c1cnc(N)c(n1)C(=O)N2`
*A* class 0

*Q* Hello, I am checking results. What call was entered for `C=C(C)[C@@H]1CC[C@]2(C(N)=O)CC[C@]3(C)[C@H](CC[C@@H]4[C@@]5(C)CC[C@H](OCCC#N)C(C)(C)[C@@H]5CC[C@]43C)[C@@H]12` ?
*A* class 0

*Q* How was `O=S1(=O)C=C(c2ccccc2)C(c2ccccc2)=C1` classified in this test?
*A* class 1

*Q* Dear colleague, could you share the recorded outcome for `CN(CCC(=O)c1ccccc1)CCC(=O)c1ccccc1` when you have a moment?
*A* class 0

*Q* Call for entry `COc1cc(/C=N/Nc2ccc(Br)cc2)cc(OC)c1OC` :
*A* class 0

*Q* Assay result, entry CC(C)CCN(CCC(C)C)CC(O)c1cc2c(c3ccccc13)CCCC2 (stereo not given) — outcome?
*A* class 0

###

system: M14 melanoma; experiment: NCI-60 one-dose screen, 48 h (100 = growth as untreated, 0 = no growth, -100 = all killed); conditions: 10 µM unless noted
About 83,000 compounds went through this panel and 20% of them were active in at least one assay; those are over-represented in the sample as a whole.
Would you mind classing the entries by growth? Ranges: L (below 30%), M (30% to below 70%), H (70% or more)

Example cases with answers are listed next.
> print(dat)
                                   compound  assigned.label
1  CN(Cc1cc(Br)cc(Br)c1O)Cc1cc(Br)cc(Br)c1O               M
2       CSc1nn2c(-c3ccc4ccccc4c3)ccnc2c1C#N               L
3               Oc1ccc(/C=C/c2ccc(O)cc2)cc1               M
4  Cc1ccc(/C=C/C(=O)Nc2ncc(Cc3ccc(F)cc3)s2)o1               M
5  O=C1Nc2c(C(=O)O)cccc2/C1=N/c1n[nH]c(=S)s1               H
6  COC1=C(C)C(=O)N2[C@@H]1[C@H](c1ccccc1)OC21C=CC(=O)C=C1               L
7  COc1ccc(-c2nc(/C=C3\C(=O)N(C)c4ccccc43)c3ccccn23)cc1               H
8  O=C(Nc1ccccc1[N+](=O)[O-])c1ccc(Cl)c(Cl)c1               H

Turning to the following compound.
*Q* Which category does the recorded growth put COc1ccc(/C=C/C(c2cc(OC)c(OC)c(OC)c2)n2ccnc2)cc1O (stereo not given) in?
*A* L

Reference source: PubChem BioAssay (NCI)
